meta.source: PubChem BioAssay

tested on: Human papillomavirus type 1a E7 protein (residues 1-88); test: HPV1a E7 small-molecule binders, primary screen, biochemical, small-molecule microarray, residues 1-88, 635 nm (AID 1129); conditions: small-molecule microarray binding, fluorescence 635 nm; higher = more signal
Binary call on composite z-score: y from 1 upward, n beneath that.

Observe how each entry below is paired with its result.
C=C(CCCC)/C(=C/C[C@H](OC(C)=O)c1ccc(OCCO)cc1)c1cc(C(=O)OC)ccc1OC :: y
CC1(C)C(=O)C(c2ccccc2)=C2CN3C(=O)N(CCc4ccccc4)C(=O)C3(Cc3ccc(C(F)(F)F)cc3)C=C21 (stereo not given) :: y
COc1cc2c(cc1O)C(c1cccs1)N(Cc1sc3ccccc3c1Cl)CC2 (stereo not given) :: y

Say whether Cc1ccc(S[C@]2(C(=O)NCc3ccccc3)CC(=O)N(Cc3cc(C(F)(F)F)cc(C(F)(F)F)c3)[C@@H]2c2ccc(CO)cc2I)cc1 shows composite z-score of 1 or more.
n

Request: COC(=O)[C@@]1(Cc2ccc(F)cc2)[C@H]2c3cc(C(=O)N4CCCC4)n(C)c3C[C@H]2CN1C(=O)c1ccccc1
y
